Procedure Text: MRT (0 to infinity) in ICR mouse at 1 mg/kg, iv measured after 24 hrs by LC-MS/MS analysis
Assay type: ADME, organism-based
Condition Context: in vivo

{"columns": ["Structure String", "MRT inf"],
 "data": [
  ["COc1nc(-c2ccc(NC(=O)Nc3ccc(C(=O)NCCCCCC(=O)Nc4ccccc4N)cc3)cc2)nc(N2CCOCC2)n1", "2 h"]
]}

###

Procedure Text: Stability in mouse liver microsomes assessed as compound remaining at […] preincubated for 5 mins followed by NADPH addition and measured after 30 mins by LC-MS/MS analysis
Assay type: ADME, Microsome
Condition Context: time 35 min, read-out: Stability

{"columns": ["Structure String", "remaining at 0.5 h"],
 "data": [
  ["COc1nc(-c2ccc(NC(=O)Nc3ccc(C(=O)NCCCCCC(=O)Nc4ccccc4N)cc3)cc2)nc(N2CCOCC2)n1", "45%"]
]}

Values were extracted from ChEMBL document CHEMBL5634161.
